B1: TPR t1 (parent)
chain: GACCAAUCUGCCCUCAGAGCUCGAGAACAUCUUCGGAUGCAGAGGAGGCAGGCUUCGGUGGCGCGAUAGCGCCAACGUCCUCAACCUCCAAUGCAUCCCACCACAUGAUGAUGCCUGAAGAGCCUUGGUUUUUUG

Variants of: B1
assay_details: polymerase ribozyme fitness, log enrichment relative to wild type (log ratio); higher = more active; in vitro selection for triplet polymerase activity
Classification field: 1 = polymerase ribozyme fitness (log ratio) at or over -1; -1 = polymerase ribozyme fitness (log ratio) under -1.

Reference set, count: 6
variant_spec	qualitative_label
U21A C40G U125A	-1
C98U G110A	-1
A27U C104U	-1
C89U C104A	-1
G39A A50G C79A	-1
C49U C82U A121U G127A	1

Qu. API: above_or_equal(metric=polymerase ribozyme fitness (log ratio), cutoff=-1) for item U9C C70U G93A
Ans. 1

Qu. Test whether the variant G35A C72U C98A G117U records polymerase ribozyme fitness (log ratio) of -1 or higher.
Ans. -1

Qu. Could you tell me if the measured polymerase ribozyme fitness (log ratio) of G36A U59A C89G reaches -1 or more?
Ans. -1
